Source listed as ChEMBL document CHEMBL1926662.

Please respond with reported EC50 for every item in the list.
molecular target: Trace amine-associated receptor 1 (Macaca mulatta); experiment: Activation of rhesus monkey TAAR1 expressed in RD-HGA16 cells co-expressing Gq protein assessed as cAMP accumulation by fluorescence plate reader; format: functional, cell-based; details: read-out: EC50
Sequence (Q8HZ64 whole entry): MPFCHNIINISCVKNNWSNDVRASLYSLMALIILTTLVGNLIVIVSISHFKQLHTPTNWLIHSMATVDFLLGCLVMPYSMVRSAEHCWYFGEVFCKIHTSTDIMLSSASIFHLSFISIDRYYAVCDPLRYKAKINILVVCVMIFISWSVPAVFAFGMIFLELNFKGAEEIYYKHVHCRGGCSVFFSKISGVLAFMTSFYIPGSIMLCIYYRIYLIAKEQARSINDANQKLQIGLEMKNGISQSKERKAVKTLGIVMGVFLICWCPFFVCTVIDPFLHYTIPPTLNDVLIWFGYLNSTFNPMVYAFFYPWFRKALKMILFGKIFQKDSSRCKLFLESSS
State the answer as a number, implicitly in µM.

Data request: Need EC50, item "CN[C@@H](C)Cc1ccc2c(c1)OCO2"
Data returned: 16.1

Data request: Need EC50, item "C[C@@H](N)Cc1ccc2c(c1)OCO2"
Data returned: 2.48

Data request: Need EC50, item "COc1cc(C[C@H](C)N)c(OC)cc1C"
Data returned: 0.9

Data request: Need EC50, item "CN[C@@H](C)Cc1ccccc1"
Data returned: 5.3

Data request: Need EC50, item "CN[C@H](C)Cc1ccc2c(c1)OCO2"
Data returned: 7.4

Data request: Need EC50, item "C[C@@H](N)Cc1ccc(O)cc1"
Data returned: 0.424

Data request: Need EC50, item "COc1cc(C[C@@H](C)N)c(OC)cc1Br"
Data returned: 13.9

Data request: Need EC50, item "COc1cc(C[C@H](C)N)c(OC)cc1Br"
Data returned: 2.14

Data request: Need EC50, item C[C@H](N)Cc1ccc(O)cc1 [(S)-P-HYDROXYAMPHETAMINE]
Data returned: 0.101

Data request: Need EC50, item "CN[C@H](C)Cc1ccccc1"
Data returned: 2.5

Data request: Need EC50, item COc1cccc(C[C@H](C)N)c1 [(S)-M-METHOXYAMPHETAMINE]
Data returned: 3.3

Data request: Need EC50, item "C[C@H](N)Cc1ccc2c(c1)OCO2"
Data returned: 1.35

----------
molecular target: Trace amine-associated receptor 1 (Macaca mulatta); experiment: Activation of rhesus monkey TAAR1 expressed in RD-HGA16 cells co-expressing Gq protein assessed as cAMP accumulation by fluorescence plate reader; type: functional, cell-based; settings: rd-hga16

[
  {
    "smiles.repr": "COc1cccc(C[C@@H](C)N)c1",
    "EC50": "Not Active"
  },
  {
    "smiles.repr": "CCc1cc(OC)c(C[C@@H](C)N)cc1OC",
    "EC50": "Not Active"
  },
  {
    "smiles.repr": "CCc1cc(OC)c(C[C@H](C)N)cc1OC",
    "EC50": "Not Active"
  },
  {
    "smiles.repr": "COc1cc(C[C@@H](C)N)c(OC)cc1C",
    "EC50": "Not Active"
  }
]

----------
biological target: Trace amine-associated receptor 1 (Rattus norvegicus, UniProt Q923Y9); experiment: Activation of rat TAAR1 expressed in HEK293 cells assessed as accumulation of [3H]cAMP after 1 hr by liquid scintillation counting; assay type: functional, cell-based
Sequence (Q923Y9 whole entry): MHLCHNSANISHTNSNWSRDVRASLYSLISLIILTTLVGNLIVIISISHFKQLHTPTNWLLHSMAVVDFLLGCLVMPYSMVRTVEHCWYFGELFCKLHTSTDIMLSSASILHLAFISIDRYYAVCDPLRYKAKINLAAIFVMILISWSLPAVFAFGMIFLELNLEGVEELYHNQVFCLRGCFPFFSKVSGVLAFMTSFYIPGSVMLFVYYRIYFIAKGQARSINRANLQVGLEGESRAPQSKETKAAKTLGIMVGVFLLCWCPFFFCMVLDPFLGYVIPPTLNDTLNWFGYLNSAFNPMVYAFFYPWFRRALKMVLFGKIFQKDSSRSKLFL
Please respond with reported EC50 for every item in the list.
State the answer as a number, implicitly in nM.

Data request: Need EC50, item "CN[C@@H](C)Cc1ccccc1"
Data returned: 890

Data request: Need EC50, item "CN[C@H](C)Cc1ccccc1"
Data returned: 1190

Data request: Need EC50, item "C[C@@H](N)Cc1ccc(O)cc1"
Data returned: 60

Data request: Need EC50, item C[C@H](N)Cc1ccc(O)cc1 [(S)-P-HYDROXYAMPHETAMINE]
Data returned: 190

----------
Biological target: Trace amine-associated receptor 1 (Homo sapiens)
Sequence (Q96RJ0 whole entry): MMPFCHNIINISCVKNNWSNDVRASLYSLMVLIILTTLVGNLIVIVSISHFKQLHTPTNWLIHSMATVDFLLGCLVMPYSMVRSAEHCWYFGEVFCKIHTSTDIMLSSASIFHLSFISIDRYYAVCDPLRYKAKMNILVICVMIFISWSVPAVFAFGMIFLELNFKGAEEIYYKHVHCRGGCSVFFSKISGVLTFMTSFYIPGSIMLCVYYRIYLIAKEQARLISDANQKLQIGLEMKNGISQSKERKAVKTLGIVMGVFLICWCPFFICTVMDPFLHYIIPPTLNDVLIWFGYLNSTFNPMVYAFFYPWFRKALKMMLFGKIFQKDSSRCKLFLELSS
Test: Activation of human TAAR1 expressed in human HEK293T cells assessed as cAMP accumulation after 10 mins by BRET assay
Assay type: functional, cell-based, HEK-293T
readout.type: EC50

Data request: Need EC50, item "CN[C@@H](C)Cc1ccccc1"
Data returned: 1300 nM

----------
Please respond with reported EC50 for every item in the list.
molecular target: Trace amine-associated receptor 1 (Mus musculus, UniProt Q923Y8); assay: Activation of mouse TAAR1 expressed in human HEK293 cells assessed as accumulation of [3H]cAMP after 1 hr by liquid scintillation counting; assay type: functional, cell-based
Sequence (Q923Y8 whole entry): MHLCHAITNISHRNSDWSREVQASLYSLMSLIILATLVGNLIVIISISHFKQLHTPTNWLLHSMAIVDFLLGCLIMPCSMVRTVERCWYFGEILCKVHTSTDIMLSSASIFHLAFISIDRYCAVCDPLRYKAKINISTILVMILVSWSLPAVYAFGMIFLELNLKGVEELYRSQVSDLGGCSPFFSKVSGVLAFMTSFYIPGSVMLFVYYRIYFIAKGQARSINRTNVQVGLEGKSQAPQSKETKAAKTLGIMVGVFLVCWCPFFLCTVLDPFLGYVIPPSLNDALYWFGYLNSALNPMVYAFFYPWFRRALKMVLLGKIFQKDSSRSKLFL
State the answer as a number, implicitly in nM.

Data request: Need EC50, item C[C@H](N)Cc1ccc(O)cc1 [(S)-P-HYDROXYAMPHETAMINE]
Data returned: 280

Data request: Need EC50, item "C[C@@H](N)Cc1ccc(O)cc1"
Data returned: 5650

Data request: Need EC50, item "CN[C@H](C)Cc1ccccc1"
Data returned: 2440

Data request: Need EC50, item CN[C@@H](C)Cc1ccccc1 [METHAMPHETAMINE]
Data returned: 920

----------
target: Trace amine-associated receptor 1 (Homo sapiens); test: Activation of C-terminal HA epitope tagged human TAAR1 expressed in RD-HGA16 cells co-expressing Gq protein, Galpha16 by cAMP accumulation assay; assay type: functional, cell-based; details: read-out: EC50
readout.type: pEC50
Conceptually, pEC50 converts a concentration in mol/L into minus its log10.

Data request: # get_value(readout= pEC50, system= Trace amine-associated receptor 1 (Homo sapiens)) for "COc1cc(C[C@H](C)N)c(OC)cc1Br"
Data returned: 4.81

Data request: # get_value(readout= pEC50, system= Trace amine-associated receptor 1 (Homo sapiens)) for "C[C@@H](N)Cc1ccc2c(c1)OCO2"
Data returned: 4.93

Data request: # get_value(readout= pEC50, system= Trace amine-associated receptor 1 (Homo sapiens)) for C[C@H](N)Cc1ccc(O)cc1 [(S)-P-HYDROXYAMPHETAMINE]
Data returned: 5.53

Data request: # get_value(readout= pEC50, system= Trace amine-associated receptor 1 (Homo sapiens)) for COc1cccc(C[C@H](C)N)c1 [(S)-M-METHOXYAMPHETAMINE]
Data returned: 5.72

Data request: # get_value(readout= pEC50, system= Trace amine-associated receptor 1 (Homo sapiens)) for "COc1cc(C[C@@H](C)N)c(OC)cc1Br"
Data returned: 4.50

Data request: # get_value(readout= pEC50, system= Trace amine-associated receptor 1 (Homo sapiens)) for "C[C@@H](N)Cc1ccc(O)cc1"
Data returned: 5.50

Data request: # get_value(readout= pEC50, system= Trace amine-associated receptor 1 (Homo sapiens)) for "COc1cccc(C[C@@H](C)N)c1"
Data returned: 5.19

Data request: # get_value(readout= pEC50, system= Trace amine-associated receptor 1 (Homo sapiens)) for "C[C@H](N)Cc1ccc2c(c1)OCO2"
Data returned: 5.18

Data request: # get_value(readout= pEC50, system= Trace amine-associated receptor 1 (Homo sapiens)) for "CN[C@@H](C)Cc1ccccc1"
Data returned: 5.82

Data request: # get_value(readout= pEC50, system= Trace amine-associated receptor 1 (Homo sapiens)) for "CN[C@H](C)Cc1ccccc1"
Data returned: 5.48
